Task for the reader: assign each of the following binders its reported EC50.
target: T1, E. coli-derived TF ECD-His6 (Homo sapiens (Human), UniProt P13726 33-251); test: protein ELISA, plate coated with E. coli-derived TF-His
T1 construct: The OmpA signal is not part of that entry; also called E.coli-derived TF protein; E. coli-derived TF-His
Give bare numbers, in nM.

binder | assay.value
anti-TF antibody 54E (antibody, human IgG1, V domains shown, Human IgG1) VH: QVQLVQSGAEVKKPGASVKVSCKASGYTFANYYMHWVRQAPGQGLEWMGIINPSGGITVYAQKFQGRVTMTRDTSTSTVYMELSSLRSEDTAVYYCARGGSKVAALAFDIWGQGTMVTVSS VL: DIQMTQSPSSLSASVGDRVTITCQASQDISNSLNWYQQKPGKAPKLLIYDASNLETGVPSRFSGSRSGTDFTFTISSLQPEDIATYYCQQYNFHPLTFGGGTKVEIK | 0.38
anti-TF antibody 25G1 (antibody, human IgG1, kappa, V domains shown, Human IgG1) VH: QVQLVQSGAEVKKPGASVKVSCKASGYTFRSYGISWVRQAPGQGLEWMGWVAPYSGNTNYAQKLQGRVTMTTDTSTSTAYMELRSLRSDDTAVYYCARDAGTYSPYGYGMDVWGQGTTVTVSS VL: DIQMTQSPSTLSASVGDRVTITCRASHSIDSWLAWYQQKPGKAPKLLIYKASYLESGVPSRFSGSGSGTEFTLTISSLQPDDFATYYCQLFQSLPPFTFGGGTKVEIKR | 0.31

Below are some binders; for each one, tell me its EC50.
1. anti-TF antibody 25A (antibody, human IgG1, V domains shown, Human IgG1) VH: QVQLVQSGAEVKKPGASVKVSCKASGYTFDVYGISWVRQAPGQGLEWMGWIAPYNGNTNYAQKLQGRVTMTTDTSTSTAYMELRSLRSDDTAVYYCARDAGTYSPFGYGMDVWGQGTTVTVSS VL: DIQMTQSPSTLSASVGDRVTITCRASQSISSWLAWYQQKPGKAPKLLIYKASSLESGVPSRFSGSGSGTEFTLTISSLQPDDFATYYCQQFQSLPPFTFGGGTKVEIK
2. anti-TF antibody 25A3 (antibody, human IgG1, kappa, V domains shown, Human IgG1) VH: QVQLVQSGAEVKKPGASVKVSCKASGYTFDVYGISWVRQAPGQGLEWMGWIAPYSGNTNYAQKLQGRVTMTTDTSTSTAYMELRSLRSDDTAVYYCARDAGTYSPFGYGMDVWGQGTTVTVSS VL: DIQMTQSPSTLSASVGDRVTITCQASQSINNWLAWYQQKPGKAPKLLIYKAYNLESGVPSRFSGSGSGTEFTLTISSLQPDDFATYYCQLFQSLPPFTFGGGTKVEIKR

## Result
0.35
0.36

## Task I'd like to know its EC50. The binder in question is anti-TF antibody 39A (antibody, human IgG1, V domains shown, Human IgG1) VH: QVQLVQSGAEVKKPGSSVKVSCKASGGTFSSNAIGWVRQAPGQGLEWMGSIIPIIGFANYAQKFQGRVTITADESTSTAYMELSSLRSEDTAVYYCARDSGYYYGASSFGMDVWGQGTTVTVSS VL: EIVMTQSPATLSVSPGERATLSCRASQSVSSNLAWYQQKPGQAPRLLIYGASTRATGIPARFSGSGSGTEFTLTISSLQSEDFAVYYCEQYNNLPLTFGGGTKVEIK
## Result 0.34
